- assay_details: Fraction unbound in mouse plasma
- Type: ADME, cell-free
quantity_measured: fraction unbound

>  <compound>
Cc1nc(C)c(-c2ccc(C3CCC(CC(=O)O)CC3)cc2)nc1C(N)=O (stereo unspecified)

>  <observed>
0.1

$$$$

###

- assay_details: Apparent permeability from apical to basolateral side in MDCK cells at pH 7.4
- settings: dog

>  <molecule>
Cc1nc(C)c(-c2ccc3c(c2)CC[C@]32CC[C@@H](CC(=O)O)CC2)nc1C(N)=O

>  <result_unit>
×10⁻⁶ cm/s

>  <Papp A→B>
12

$$$$
>  <molecule>
Cc1nc(C)c(-c2ccc(C3CCC(CC(=O)O)CC3)cc2)nc1C(N)=O (centres undefined)

>  <result_unit>
×10⁻⁶ cm/s

>  <Papp A→B>
12

$$$$
>  <molecule>
Cc1nc(C)c(-c2ccc([C@H]3CC[C@H](CC(N)=O)CC3)cc2)nc1C(N)=O

>  <result_unit>
×10⁻⁶ cm/s

>  <Papp A→B>
18

$$$$
>  <molecule>
Cc1nc(C)c(-c2ccc(C34CCC(C(=O)O)(CC3)CC4)cc2)nc1C(N)=O

>  <result_unit>
×10⁻⁶ cm/s

>  <Papp A→B>
13

$$$$
